Catalogue of molecules with associated Ki
# measured-target: hCA XII (Homo sapiens)
# Sequence (O43570 25-354): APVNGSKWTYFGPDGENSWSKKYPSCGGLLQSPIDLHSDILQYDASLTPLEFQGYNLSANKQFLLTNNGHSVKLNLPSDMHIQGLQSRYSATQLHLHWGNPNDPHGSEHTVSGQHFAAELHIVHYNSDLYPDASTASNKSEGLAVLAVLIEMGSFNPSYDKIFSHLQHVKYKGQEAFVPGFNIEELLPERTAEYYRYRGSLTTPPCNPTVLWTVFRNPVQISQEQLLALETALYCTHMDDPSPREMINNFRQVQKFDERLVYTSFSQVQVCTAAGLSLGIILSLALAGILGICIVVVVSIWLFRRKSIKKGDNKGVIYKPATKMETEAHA

Observed Ki on hCA XII (Homo sapiens), entry COc1cc(C(=O)c2cn(-c3cccc(S(N)(=O)=O)c3)c3ccccc23)cc(OC)c1OC [Compound 20] , equals 58.1 nM

Record for COc1cc(C(=O)c2cn(-c3ccccc3S(N)(=O)=O)c3ccccc23)cc(OC)c1OC [Compound 21] under target or system hCA XII (Homo sapiens): Ki reported as 1190 nM

====

# measured-target: hCA II (Homo sapiens)
The compounds listed here are annotated with their Ki.

The examples below pair each entry with its known result.
{"compound-structure-string": "COc1cc(C(=O)c2ccn(-c3ccccc3S(N)(=O)=O)c2)cc(OC)c1OC", "observed-property": "Ki", "assay-result": "888 nM"}
{"compound-structure-string": "COc1cc(C(=O)c2cn(-c3ccccc3S(N)(=O)=O)cc2-c2ccccc2)cc(OC)c1OC", "observed-property": "Ki", "assay-result": "> 10000 nM"}
{"compound-structure-string": "COc1cc(C(=O)c2cn(-c3ccccc3S(N)(=O)=O)c3ccccc23)cc(OC)c1OC", "observed-property": "Ki", "assay-result": "> 10000 nM"}
{"compound-structure-string": "COc1cc(C(=O)c2cn(-c3cccc(S(N)(=O)=O)c3)c3ccccc23)cc(OC)c1OC", "observed-property": "Ki", "assay-result": "229 nM"}

Ki of `COc1cc(C(=O)c2cn(-c3ccc(S(N)(=O)=O)cc3)c3ccccc23)cc(OC)c1OC` , assay on hCA II (Homo sapiens), is 67.8 nM
